All figures here come from ChEMBL document CHEMBL1201862.

System: LOX IMVI
Assay: NCI tumour cell line growth inhibition, 48 h
The source made the active and inactive calls. Rule as the data show it: active = GI50 up to about 1.1 µM and inactive = higher.
experimental_endpoint: GI50

* CNC(=O)CNC(=O)CCC(=O)N(C)C | > 100 µM (inactive)
* COC(=O)c1c(CC(Cc2ccc3c(c2)CCCC3)C(=O)OC)ccc2c1CCCC2 (stereo unspecified) | 43 µM (inactive)

In: Which measured GI50 value corresponds to CCCC[C@@H](C)/C=C1\CN2CCC[C@H]2[C@@](C)(O)[C@@H]1O ?
Out: 22.8 µM (inactive)

In: Similarly, CN(C)c1ccc2c(=O)c3ccccc3oc2n1 ?
Out: > 100 µM (inactive)

In: Now consider CCCCCCCCCCCC(=O)OCC1OC(n2cc(F)c(=O)[nH]c2=O)C(NC(=O)OCc2ccccc2)C(OC(=O)CCCCCCCCCCC)C1O (stereo unspecified) and answer again.
Out: > 100 µM (inactive)

In: Then this compound: CCCC[C@@H]1CCN2C[C@@H](O)[C@@H](O)[C@@H]2[C@H]1O
Out: > 100 µM (inactive)
